Reference source: patent US8372854B2

Give pIC50 for every item shown.
study.target: JAK3 (Homo sapiens, UniProt P52333)
Construct: PV3855
Sequence (P52333 whole entry): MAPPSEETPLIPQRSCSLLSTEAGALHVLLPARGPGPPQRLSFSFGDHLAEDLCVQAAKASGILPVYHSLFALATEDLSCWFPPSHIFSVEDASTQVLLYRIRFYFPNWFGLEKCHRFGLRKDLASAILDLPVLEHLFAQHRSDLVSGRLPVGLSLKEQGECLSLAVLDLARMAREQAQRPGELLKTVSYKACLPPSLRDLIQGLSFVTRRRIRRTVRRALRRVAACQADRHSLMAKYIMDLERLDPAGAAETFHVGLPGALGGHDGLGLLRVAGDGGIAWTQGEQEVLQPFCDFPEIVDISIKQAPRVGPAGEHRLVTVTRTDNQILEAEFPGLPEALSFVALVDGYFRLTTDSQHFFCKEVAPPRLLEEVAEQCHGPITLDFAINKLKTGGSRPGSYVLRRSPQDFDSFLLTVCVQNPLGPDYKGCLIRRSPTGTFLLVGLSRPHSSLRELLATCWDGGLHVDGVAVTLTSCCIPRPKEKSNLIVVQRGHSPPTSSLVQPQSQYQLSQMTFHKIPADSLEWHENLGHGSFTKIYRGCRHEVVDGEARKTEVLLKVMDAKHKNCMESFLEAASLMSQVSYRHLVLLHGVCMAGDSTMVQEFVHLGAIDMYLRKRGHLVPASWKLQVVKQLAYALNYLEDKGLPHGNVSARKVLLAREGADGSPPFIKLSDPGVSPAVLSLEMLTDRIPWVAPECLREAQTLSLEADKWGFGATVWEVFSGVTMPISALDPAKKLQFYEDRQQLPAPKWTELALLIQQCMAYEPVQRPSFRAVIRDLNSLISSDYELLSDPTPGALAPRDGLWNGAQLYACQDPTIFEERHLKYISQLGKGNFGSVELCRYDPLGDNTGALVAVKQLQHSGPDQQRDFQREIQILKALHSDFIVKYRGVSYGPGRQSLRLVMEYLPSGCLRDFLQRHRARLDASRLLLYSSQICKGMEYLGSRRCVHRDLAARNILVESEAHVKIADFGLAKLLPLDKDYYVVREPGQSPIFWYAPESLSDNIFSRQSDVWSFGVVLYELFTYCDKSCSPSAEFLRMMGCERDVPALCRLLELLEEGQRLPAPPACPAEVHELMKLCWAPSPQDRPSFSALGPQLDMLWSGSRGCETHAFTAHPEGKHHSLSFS
method.notes: JAK enzymatic assay (peptide mobility shift), JAK3
test.settings: recombinant JAK3 1 nM, ATP 4 μM, 1 μM JAKtide peptide, 90 minutes
# pIC50: negative log10 of molar concentration; output just the value

# get_value(readout='pIC50', item= CN(c1ncnc2[nH]ccc12)[C@H]1CC[C@H](CS(=O)(=O)N[C@@H]2CCC[C@@H]2c2ccc(F)cc2)CC1 [Example 46] )
6.45

# get_value(readout='pIC50', item= CC(C)c1ccc(CCNS(=O)(=O)C[C@H]2CC[C@H](N(C)c3ncnc4[nH]ccc34)CC2)c(F)c1 [Example 38] )
6.84

# get_value(readout='pIC50', item= CN(c1ncnc2[nH]ccc12)[C@H]1CC[C@H](CS(=O)(=O)NCC(F)c2ccc(F)cc2)CC1 (stereo partly shown) [Example 11] )
6.37

# get_value(readout='pIC50', item= CN(Cc1cccc(N)n1)S(=O)(=O)C[C@H]1CC[C@H](N(C)c2ncnc3[nH]ccc23)CC1 [Example 29] )
6.29

---

study.target: JAK1 (Homo sapiens)
Construct: PV4775
method.notes: JAK enzymatic assay (peptide mobility shift), JAK1
test.settings: recombinant JAK1 20 nM, ATP 40 μM, 1 μM IRS-1 peptide, 240 minutes
Rule: IC50 below 10 nM gives Met, anything at or above gives Not met.

Find out if reported IC50 for CN(c1ncnc2[nH]ccc12)[C@H]1CC[C@H](CS(=O)(=O)Nc2ccc3c(c2)OCCCO3)CC1 is less than 10 nM
Met

Find out if reported IC50 for COc1ccc(NS(=O)(=O)C[C@H]2CC[C@H](N(C)c3ncnc4[nH]ccc34)CC2)cn1 is less than 10 nM
Met

Find out if reported IC50 for CN(c1ncnc2[nH]ccc12)[C@H]1CC[C@H](CS(=O)(=O)NCCc2ccc(O)cc2)CC1 is less than 10 nM
Met

Find out if reported IC50 for CN(c1ncnc2[nH]ccc12)[C@H]1CC[C@H](CS(=O)(=O)Nc2ccc(C#N)cc2)CC1 is less than 10 nM
Not met

Find out if reported IC50 for CN(Cc1cccc(N)n1)S(=O)(=O)C[C@H]1CC[C@H](N(C)c2ncnc3[nH]ccc23)CC1 is less than 10 nM
Not met

Find out if reported IC50 for CN(c1ncnc2[nH]ccc12)[C@H]1CC[C@@H](CS(=O)(=O)NCc2ccccc2)CC1 is less than 10 nM
Not met

Find out if reported IC50 for CN(c1ncnc2[nH]ccc12)[C@H]1CC[C@H](CS(=O)(=O)N[C@H]2C[C@@H]2c2ccccc2)CC1 is less than 10 nM
Met

Find out if reported IC50 for Cc1cccc(CCNS(=O)(=O)C[C@H]2CC[C@H](N(C)c3ncnc4[nH]ccc34)CC2)n1 is less than 10 nM
Not met

Find out if reported IC50 for COc1ccc(CNS(=O)(=O)C[C@H]2CC[C@H](N(C)c3ncnc4[nH]ccc34)CC2)cc1 is less than 10 nM
Not met

Find out if reported IC50 for CN(c1ncnc2[nH]ccc12)[C@H]1CC[C@@H](CS(=O)(=O)NCC2CC2)CC1 is less than 10 nM
Not met

Find out if reported IC50 for CN(Cc1cccnc1)S(=O)(=O)C[C@H]1CC[C@H](N(C)c2ncnc3[nH]ccc23)CC1 is less than 10 nM
Met

Find out if reported IC50 for CN(c1ncnc2[nH]ccc12)[C@H]1CC[C@H](CS(=O)(=O)NCC(C)(F)c2cccc(F)c2)CC1 (stereo partly drawn) is less than 10 nM
Not met

Find out if reported IC50 for CN(c1ncnc2[nH]ccc12)[C@H]1CC[C@H](CS(=O)(=O)NCCc2ccc(C(F)(F)F)cc2F)CC1 is less than 10 nM
Not met

Find out if reported IC50 for CN(c1ncnc2[nH]ccc12)[C@H]1CC[C@H](CS(=O)(=O)NC2(Cc3ccccc3)CCC2)CC1 is less than 10 nM
Not met

---

study.target: JAK3 (Homo sapiens, UniProt P52333)
Construct: PV3855
method.notes: JAK enzymatic assay (peptide mobility shift), JAK3
test.settings: recombinant JAK3 1 nM, ATP 4 μM, 1 μM JAKtide peptide, 90 minutes
Give IC50 for every item shown.

# get_value(readout='IC50', item= CN(c1ncnc2[nH]ccc12)[C@H]1CC[C@H](CS(=O)(=O)N[C@H]2CC[C@H](C(C)(C)O)CC2)CC1 )
0.212 µM

# get_value(readout='IC50', item= CN(c1ncnc2[nH]ccc12)[C@H]1CC[C@H](CS(=O)(=O)NCCc2ccc(S(N)(=O)=O)cc2)CC1 )
0.166 µM

# get_value(readout='IC50', item= CN(c1ncnc2[nH]ccc12)[C@H]1CC[C@H](CS(=O)(=O)NC[C@H]2CCCO2)CC1 )
1.06 µM

# get_value(readout='IC50', item= Cc1cc(NS(=O)(=O)C[C@H]2CC[C@H](N(C)c3ncnc4[nH]ccc34)CC2)n[nH]1 )
0.342 µM

# get_value(readout='IC50', item= CN(c1ncnc2[nH]ccc12)[C@H]1CC[C@H](CS(=O)(=O)NC2(Cc3ccccc3)CCC2)CC1 )
0.641 µM

# get_value(readout='IC50', item= COc1ccccc1CCNS(=O)(=O)C[C@H]1CC[C@H](N(C)c2ncnc3[nH]ccc23)CC1 )
0.188 µM

# get_value(readout='IC50', item= Cc1ccc(CCNS(=O)(=O)C[C@H]2CC[C@H](N(C)c3ncnc4[nH]ccc34)CC2)c(C)c1 )
0.139 µM

# get_value(readout='IC50', item= CN(c1ncnc2[nH]ccc12)[C@H]1CC[C@H](CS(=O)(=O)NCCc2cccc(Cl)c2)CC1 )
0.294 µM

# get_value(readout='IC50', item= CN(c1ncnc2[nH]ccc12)[C@H]1CC[C@H](CS(=O)(=O)NCc2cccnc2)CC1 )
0.376 µM

# get_value(readout='IC50', item= C[C@H](O)CNS(=O)(=O)C[C@H]1CC[C@H](N(C)c2ncnc3[nH]ccc23)CC1 )
0.526 µM

---

study.target: JAK1 (Homo sapiens, UniProt P23458)
Construct: PV4775
Sequence (P23458 whole entry): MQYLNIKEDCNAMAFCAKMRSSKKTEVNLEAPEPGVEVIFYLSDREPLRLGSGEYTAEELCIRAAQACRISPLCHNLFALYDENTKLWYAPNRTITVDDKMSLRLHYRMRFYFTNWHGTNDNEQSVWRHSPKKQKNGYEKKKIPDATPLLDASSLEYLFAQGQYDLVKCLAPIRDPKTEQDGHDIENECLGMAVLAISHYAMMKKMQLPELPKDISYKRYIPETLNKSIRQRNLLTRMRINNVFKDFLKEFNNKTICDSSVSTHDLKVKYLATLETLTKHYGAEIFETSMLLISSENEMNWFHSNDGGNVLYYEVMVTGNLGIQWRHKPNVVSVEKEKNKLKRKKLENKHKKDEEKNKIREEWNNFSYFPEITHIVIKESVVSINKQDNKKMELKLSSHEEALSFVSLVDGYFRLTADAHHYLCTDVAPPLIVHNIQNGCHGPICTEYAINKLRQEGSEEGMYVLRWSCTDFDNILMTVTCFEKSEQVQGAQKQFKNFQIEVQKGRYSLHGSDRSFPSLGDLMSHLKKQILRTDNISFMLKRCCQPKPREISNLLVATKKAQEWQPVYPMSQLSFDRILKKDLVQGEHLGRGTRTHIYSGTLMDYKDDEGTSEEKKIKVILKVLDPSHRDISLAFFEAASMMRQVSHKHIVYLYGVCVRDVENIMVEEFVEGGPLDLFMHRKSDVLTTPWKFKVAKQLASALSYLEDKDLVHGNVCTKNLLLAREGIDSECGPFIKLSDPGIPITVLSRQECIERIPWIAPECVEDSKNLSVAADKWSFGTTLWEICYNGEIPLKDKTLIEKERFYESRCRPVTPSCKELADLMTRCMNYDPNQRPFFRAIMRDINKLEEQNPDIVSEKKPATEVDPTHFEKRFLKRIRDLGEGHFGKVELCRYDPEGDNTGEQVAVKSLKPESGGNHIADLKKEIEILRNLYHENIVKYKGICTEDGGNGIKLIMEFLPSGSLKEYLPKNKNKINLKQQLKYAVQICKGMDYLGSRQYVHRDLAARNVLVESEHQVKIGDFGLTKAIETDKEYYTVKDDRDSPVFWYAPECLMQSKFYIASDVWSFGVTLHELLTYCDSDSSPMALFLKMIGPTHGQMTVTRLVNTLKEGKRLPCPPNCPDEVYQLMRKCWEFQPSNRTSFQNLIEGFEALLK
method.notes: JAK enzymatic assay (peptide mobility shift), JAK1
test.settings: recombinant JAK1 20 nM, ATP 40 μM, 1 μM IRS-1 peptide, 240 minutes
pIC50: −log10 of the molar value.
# binarize pIC50: threshold 8 inclusive, high side yes, low side no

Is pIC50 at least 8? Consider C[C@H](O)CNS(=O)(=O)C[C@H]1CC[C@H](N(C)c2ncnc3[nH]ccc23)CC1
no

Is pIC50 at least 8? Consider CN(c1ncnc2[nH]ccc12)[C@H]1CC[C@H](CS(=O)(=O)Nc2ccc3[nH]ncc3c2)CC1
no

Is pIC50 at least 8? Consider CN(c1ncnc2[nH]ccc12)[C@H]1CC[C@H](CS(=O)(=O)NCCc2ccccc2)CC1
yes

---

Give IC50 for every item shown.
study.target: JAK2 (Homo sapiens, UniProt O60674)
Construct: PV4210
Sequence (O60674 whole entry): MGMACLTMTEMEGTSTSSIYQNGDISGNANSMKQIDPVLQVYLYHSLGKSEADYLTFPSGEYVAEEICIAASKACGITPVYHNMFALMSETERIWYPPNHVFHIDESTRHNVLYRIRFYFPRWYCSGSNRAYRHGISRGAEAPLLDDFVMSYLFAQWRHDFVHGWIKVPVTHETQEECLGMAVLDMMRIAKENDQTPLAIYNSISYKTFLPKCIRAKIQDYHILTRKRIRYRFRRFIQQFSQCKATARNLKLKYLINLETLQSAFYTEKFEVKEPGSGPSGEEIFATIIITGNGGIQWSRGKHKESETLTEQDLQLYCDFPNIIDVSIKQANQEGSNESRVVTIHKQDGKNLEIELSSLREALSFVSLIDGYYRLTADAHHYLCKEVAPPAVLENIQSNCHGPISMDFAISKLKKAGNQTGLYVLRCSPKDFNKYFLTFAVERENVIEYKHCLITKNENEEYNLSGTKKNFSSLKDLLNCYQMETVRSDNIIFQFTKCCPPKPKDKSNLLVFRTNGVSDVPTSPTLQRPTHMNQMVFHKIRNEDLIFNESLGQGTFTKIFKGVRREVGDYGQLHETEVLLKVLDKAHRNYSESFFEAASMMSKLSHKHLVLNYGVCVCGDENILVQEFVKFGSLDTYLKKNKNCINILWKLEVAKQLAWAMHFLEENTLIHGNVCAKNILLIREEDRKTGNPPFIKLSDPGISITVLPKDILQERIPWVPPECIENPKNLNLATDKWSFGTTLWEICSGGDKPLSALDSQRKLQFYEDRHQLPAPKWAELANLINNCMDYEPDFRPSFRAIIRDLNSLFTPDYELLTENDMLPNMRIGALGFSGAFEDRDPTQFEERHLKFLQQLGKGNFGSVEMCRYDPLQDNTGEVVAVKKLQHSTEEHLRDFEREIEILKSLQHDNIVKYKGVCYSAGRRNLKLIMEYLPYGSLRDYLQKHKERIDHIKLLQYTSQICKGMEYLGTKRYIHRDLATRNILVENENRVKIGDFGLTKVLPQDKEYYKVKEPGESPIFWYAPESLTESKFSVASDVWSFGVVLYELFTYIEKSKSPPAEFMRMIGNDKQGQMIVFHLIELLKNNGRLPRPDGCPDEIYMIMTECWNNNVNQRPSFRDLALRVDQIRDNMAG
method.notes: JAK enzymatic assay (peptide mobility shift), JAK2
test.settings: recombinant JAK2 2 nM, ATP 4 μM, 1 μM JAKtide peptide, 150 minutes
The figure you give is taken to be in nM; do not add the unit.

Find the measured IC50: item CN(c1ncnc2[nH]ccc12)[C@H]1CC[C@@H](CS(=O)(=O)NCC2CC2)CC1 [Example 55] , target or system JAK2 (Homo sapiens, UniProt O60674).
34.1

Find the measured IC50: item COc1ccccc1CCCNS(=O)(=O)C[C@H]1CC[C@H](N(C)c2ncnc3[nH]ccc23)CC1 [Example 40] , target or system JAK2 (Homo sapiens, UniProt O60674).
29.8

Find the measured IC50: item CN(c1ncnc2[nH]ccc12)[C@H]1CC[C@H](CS(=O)(=O)NCCc2cccc(Cl)c2)CC1 [Example 36] , target or system JAK2 (Homo sapiens, UniProt O60674).
41.4

---

study.target: JAK1 (Homo sapiens)
Construct: PV4775
method.notes: JAK enzymatic assay (peptide mobility shift), JAK1
test.settings: recombinant JAK1 20 nM, ATP 40 μM, 1 μM IRS-1 peptide, 240 minutes
recorded.metric: pIC50
# pIC50: negative log10 of molar concentration; output just the value

# get_value(readout='pIC50', item= CN(c1ncnc2[nH]ccc12)[C@H]1CC[C@H](CS(=O)(=O)NCc2cccnc2)CC1 [Example 19] )
8.03

# get_value(readout='pIC50', item= CN(c1ncnc2[nH]ccc12)[C@H]1CC[C@H](CS(=O)(=O)NCc2ccccc2)CC1 [Example 16] )
7.87

# get_value(readout='pIC50', item= COc1ccc(CNS(=O)(=O)C[C@H]2CC[C@@H](N(C)c3ncnc4[nH]ccc34)CC2)cc1 [Example 56] )
7.97

# get_value(readout='pIC50', item= CN(c1ncnc2[nH]ccc12)[C@H]1CC[C@H](CS(=O)(=O)NCCc2ccc(Cl)c(Cl)c2)CC1 [Example 42] )
7.84

# get_value(readout='pIC50', item= CN(c1ncnc2[nH]ccc12)[C@H]1CC[C@H](CS(=O)(=O)NC[C@H]2CCCO2)CC1 [Example 47] )
7.79

# get_value(readout='pIC50', item= CN(c1ncnc2[nH]ccc12)[C@H]1CC[C@H](CS(=O)(=O)NCC(C)(F)c2ccc(F)cc2)CC1 (stereo partly drawn) [Example 8] )
8.22
